Just for reference, PubChem BioAssay AID2060327 is where these values come from.

Tested on: PC-3 multi-cell spheroids, viability
experiment: Anticancer human tumor PC-3 cell line growth inhibition [IpAb]; active = viability on the fitted dose curve at most 10% of control; inactive = the rest;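 note: spheroids exposed to compounds for 7 days before readout; 100% = DMSO vehicle control wells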
cond: second compound 0.316 µM; first compound 3.16 µM
Outcomes: TRUE (active), FALSE (inactive)

INSERT INTO assay_data (compound, group) VALUES
  ('C=CC(=O)N1CCN(c2nc(=O)n(-c3c(C)ccnc3C(C)C)c3nc(-c4c(O)cccc4F)c(F)cc23)C(C)C1 (stereo not given) + CCN1CCN(Cc2ccc(Nc3ncc(F)c(-c4cc(F)c5nc(C)n(C(C)C)c5c4)n3)nc2)CC1', 'FALSE'),
  ('CC1(C)CCC(CN2CCN(c3ccc(C(=O)NS(=O)(=O)c4ccc(NCC5CCOCC5)c([N+](=O)[O-])c4)c(Oc4cnc5[nH]ccc5c4)c3)CC2)=C(c2ccc(Cl)cc2)C1 + CC(C)NCC(C(=O)N1CCN(c2ncnc3c2C(C)CC3O)CC1)c1ccc(Cl)cc1', 'FALSE'),
  ('Cc1nc(NC(=O)N2CCCC2C(N)=O)sc1-c1ccnc(C(C)(C)C(F)(F)F)c1 (stereo not given) + CC(C)NCC(C(=O)N1CCN(c2ncnc3c2C(C)CC3O)CC1)c1ccc(Cl)cc1', 'FALSE'),
  ('C=CCn1c(=O)c2cnc(Nc3ccc(N4CCN(C)CC4)cc3)nc2n1-c1cccc(C(C)(C)O)n1 + CC(C)NCC(C(=O)N1CCN(c2ncnc3c2C(C)CC3O)CC1)c1ccc(Cl)cc1', 'FALSE'),
  ('Cn1ncc(Cl)c1-c1cc(C(=O)NC(CN)Cc2cccc(F)c2)sc1Cl (stereo not given) + CCN1CCN(Cc2ccc(Nc3ncc(F)c(-c4cc(F)c5nc(C)n(C(C)C)c5c4)n3)nc2)CC1', 'TRUE'),
  ('C=CC(=O)N1CCN(c2nc(=O)n(-c3c(C)ccnc3C(C)C)c3nc(-c4c(O)cccc4F)c(F)cc23)C(C)C1 (stereo not given) + CC(C)NCC(C(=O)N1CCN(c2ncnc3c2C(C)CC3O)CC1)c1ccc(Cl)cc1', 'FALSE'),
  ('CC1(C)CCC(CN2CCN(c3ccc(C(=O)NS(=O)(=O)c4ccc(NCC5CCOCC5)c([N+](=O)[O-])c4)c(Oc4cnc5[nH]ccc5c4)c3)CC2)=C(c2ccc(Cl)cc2)C1 + CCN1CCN(Cc2ccc(Nc3ncc(F)c(-c4cc(F)c5nc(C)n(C(C)C)c5c4)n3)nc2)CC1', 'FALSE'),
  ('CCCS(=O)(=O)Nc1ccc(F)c(C(=O)c2c[nH]c3ncc(-c4ccc(Cl)cc4)cc23)c1F + CCN1CCN(Cc2ccc(Nc3ncc(F)c(-c4cc(F)c5nc(C)n(C(C)C)c5c4)n3)nc2)CC1', 'FALSE'),
  ('Cn1ncc(Cl)c1-c1cc(C(=O)NC(CN)Cc2cccc(F)c2)sc1Cl (stereo not given) + CC(C)NCC(C(=O)N1CCN(c2ncnc3c2C(C)CC3O)CC1)c1ccc(Cl)cc1', 'FALSE'),
  ('Cc1nc(NC(=O)N2CCCC2C(N)=O)sc1-c1ccnc(C(C)(C)C(F)(F)F)c1 (stereo not given) + CCN1CCN(Cc2ccc(Nc3ncc(F)c(-c4cc(F)c5nc(C)n(C(C)C)c5c4)n3)nc2)CC1', 'FALSE');

====

System: PC-3 multi-cell spheroids, viability
experiment: Anticancer human tumor PC-3 cell line growth inhibition [IpAb];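 note: spheroids exposed to compounds for 7 days before readout; 100% = DMSO vehicle control wells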
cond: second compound 0.316 µM; first compound 0.03 µM; active compounds read low
Sorting guide: entries reporting viability, T/C beneath 50% go in the class 1 pile, the rest go in the class 0 pile.

INSERT INTO measurements (compound, group) VALUES
  ('CC(=O)c1c(C)c2cnc(Nc3ccc(N4CCNCC4)cn3)nc2n(C2CCCC2)c1=O + CC(C)NCC(C(=O)N1CCN(c2ncnc3c2C(C)CC3O)CC1)c1ccc(Cl)cc1', 'class 1'),
  ('CC(C)(C)c1cnc(CSc2cnc(NC(=O)C3CCNCC3)s2)o1 + CCN1CCN(Cc2ccc(Nc3ncc(F)c(-c4cc(F)c5nc(C)n(C(C)C)c5c4)n3)nc2)CC1', 'class 0'),
  ('CC(=O)c1c(C)c2cnc(Nc3ccc(N4CCNCC4)cn3)nc2n(C2CCCC2)c1=O + CCN1CCN(Cc2ccc(Nc3ncc(F)c(-c4cc(F)c5nc(C)n(C(C)C)c5c4)n3)nc2)CC1', 'class 0'),
  ('Cn1cnc2c(F)c(Nc3ccc(Br)cc3Cl)c(C(=O)NOCCO)cc21 + CC(C)NCC(C(=O)N1CCN(c2ncnc3c2C(C)CC3O)CC1)c1ccc(Cl)cc1', 'class 1'),
  ('CC(C)(C)c1cnc(CSc2cnc(NC(=O)C3CCNCC3)s2)o1 + CC(C)NCC(C(=O)N1CCN(c2ncnc3c2C(C)CC3O)CC1)c1ccc(Cl)cc1', 'class 1');
